tested on: A549; experiment: relative viability (nuclei count vs DMSO), 5 days (fraction); higher = more cells survive; details: first compound 0.04 µM
Would you mind telling me the reported relative viability of each entry?
I'd appreciate a reply containing only the number, no unit.

What measured relative viability goes with C[C@@H]1CN(CC(=O)Nc2ccc3c(c2)Cc2cccc(-c4cc(=O)cc(N5CCOCC5)o4)c2S3)C[C@H](C)O1 + Nc1ncn([C@H]2C[C@H](O)[C@@H](CO)O2)c(=O)n1 [Decitabine] (partner 2 µM) ?
0.24

Which relative viability is listed for Clc1ccc(Nc2nnc(Cc3ccncc3)c3ccccc23)cc1 [Vatalanib] + CC1(C)CCC(c2ccc(Cl)cc2)=C(CN2CCN(c3ccc(C(=O)NS(=O)(=O)c4ccc(N[C@H](CCN5CCOCC5)CSc5ccccc5)c(S(=O)(=O)C(F)(F)F)c4)cc3)CC2)C1 [Navitoclax] (partner 0.5 µM) ?
1.21

Fill blank: measured relative viability of the compound Clc1ccc(Nc2nnc(Cc3ccncc3)c3ccccc23)cc1 [Vatalanib] + CS(=O)(=O)CCNCc1ccc(-c2ccc3ncnc(Nc4ccc(OCc5cccc(F)c5)c(Cl)c4)c3c2)o1 [Lapatinib] (partner 2 µM) is ____.
0.991

Given the compound C[C@@H]1CN(CC(=O)Nc2ccc3c(c2)Cc2cccc(-c4cc(=O)cc(N5CCOCC5)o4)c2S3)C[C@H](C)O1 + C[C@@H](Oc1cc(-c2cnn(C3CCNCC3)c2)cnc1N)c1c(Cl)ccc(F)c1Cl [Crizotinib] (partner 1 µM) , what is its reported relative viability?
0.909

Suppose we examine the compound COc1cc(N2CCC(C(N)=O)CC2)ccc1Nc1nc(N)c(Cl)c(Nc2ccccc2S(=O)(=O)C(C)C)n1 [HG-5-88-01] + C[C@@H](Oc1cc(-c2cnn(C3CCNCC3)c2)cnc1N)c1c(Cl)ccc(F)c1Cl [Crizotinib] (partner 1 µM) ; what relative viability value has been reported?
0.735
